The following compounds are listed with their measured growth values.
system: A549/ATCC NSCLC; experiment: NCI-60 one-dose screen, 48 h (100 = growth as untreated, 0 = no growth, -100 = all killed); settings: 10 µM unless noted
The panel holds about 83,000 compounds, 20% with a hit somewhere; the sample as a whole holds those more often. The source made the active and inactive calls. How the source made its calls: active means growth percent below 10; inactive means the rest.
Outcome measure: growth

[[record]]
compound = "O=C(O)CCCCCN1C(=O)/C(=C/c2ccc(O)c(O)c2)SC1=S"
observed_measurement = "113% (inactive)"

[[record]]
compound = "O=C(N/N=C/c1ccc(Br)s1)c1[nH]c2ccc(Br)cc2c1-c1ccccc1"
observed_measurement = "28.8% (inactive)"

[[record]]
compound = "Cc1nc(-c2cc3ccccc3oc2=O)ccc1C(=O)/C=C/c1ccc(N2CCOCC2)cc1"
observed_measurement = "91.6% (inactive)"

[[record]]
compound = "C=C1CC[C@H]2[C@@](C)(CCC3OC(c4ccc(OCc5cn(C6CC(OC(C)=O)C(OC(C)=O)C(COC(C)=O)O6)nn5)cc4)OC[C@]32C)[C@@H]1/C=C/C1=CCOC1=O (stereo partly drawn)"
observed_measurement = "82.8% (inactive)"

[[record]]
compound = "O=C(c1ccc(O)cc1)C1[C@H](c2ccc(Cl)cc2)[C@@H](c2ccccc2)NC12C(=O)Nc1ccc(Cl)cc12 (stereo partly drawn)"
observed_measurement = "33.5% (inactive)"

[[record]]
compound = "COc1cc(OC)c(S(=O)(=O)NNC(=O)c2ccncc2)cc1C(=O)/C=C/c1ccc(C)cc1"
observed_measurement = "93.4% (inactive)"

[[record]]
compound = "COc1ccc(C(=O)/C=C/c2ccc(OCc3ccc(C)cc3)c(OC)c2)cc1OC"
observed_measurement = "63.3% (inactive)"

[[record]]
compound = "CS(=O)(=O)c1ccc(-c2nc3ccccn3c2-c2nc3ccc([N+](=O)[O-])cc3[nH]2)cc1"
observed_measurement = "99.8% (inactive)"


====

tested on: HT29 colon; test: NCI-60 one-dose screen, 48 h; conditions: 10 µM unless noted
The panel holds about 83,000 compounds, 20% with a hit somewhere; the sample as a whole holds those more often. Activity calls are given as the source filed them. Rule for the calls: active = growth percent below 10; inactive = the rest.
Labels: active, inactive

[[record]]
compound = "COc1cccc(OC)c1-c1nnn(C)c1C(=S)N1CCN(c2ccc([N+](=O)[O-])cc2Cl)CC1"
label_value = "inactive"

[[record]]
compound = "CC(=O)Nc1cc(F)cc(-c2ccc3[nH]cc(-c4ccccc4)c3n2)c1"
label_value = "active"

[[record]]
compound = "O=C1c2c(c3c4cccnc4[nH]c3c3ccc4ccccc4c23)C(=O)N1CCO"
label_value = "inactive"

[[record]]
compound = "N#Cc1ccc(/C=N/NC(=O)c2[nH]c3ccc(Br)cc3c2-c2ccccc2)s1"
label_value = "active"

[[record]]
compound = "NC(=O)c1c(NC(=O)c2ccc(C3CCCCC3)cc2)sc2c1CCC(=O)C2"
label_value = "active"

[[record]]
compound = "CC(C)(O)c1cncc(-c2ccc3ncnc(N4CCc5cc(F)c(Cl)cc54)c3c2)c1"
label_value = "inactive"

[[record]]
compound = "Nc1nc(N)c2c(n1)NC(c1ccc(C(F)(F)F)cc1)CC(c1ccc(Nc3nc(NCCO)nc(Nc4ccc(Cl)cc4)n3)cc1)=N2 (centres undefined)"
label_value = "active"

[[record]]
compound = "CN(C)CCCNc1c2ccccc2nc2c1oc1ccc(Cl)cc12"
label_value = "active"

[[record]]
compound = "CCCC(=O)NC(c1ccc(N(CC)CC)cc1)c1cc(C)c2cccnc2c1O (centres undefined)"
label_value = "inactive"


====

test system: HOP-92 NSCLC; experiment: NCI-60 one-dose screen, 48 h; conditions: 10 µM unless noted
Compounds without any hit were thinned out: in the full panel of roughly 83,000, 20% have a hit. Activity calls are given as the source filed them. Rule for the calls: active = growth percent below 10; inactive = the rest.
Labels: Yes (active), No (inactive)

[[record]]
molecule = "CCOC(=O)c1c(Nc2ccccc2)nn2c(N)c(C#N)c(-c3ccc(Cl)cc3)nc12"
system_tested = "HOP-92 NSCLC"
label_value = "No"

[[record]]
molecule = "N#Cc1nc(-c2ccccc2)oc1S(=O)(=O)N1CCN(CCc2ccccn2)CC1"
system_tested = "HOP-92 NSCLC"
label_value = "No"

[[record]]
molecule = "CCCCCCNC(=O)Oc1ccc(/C(=C(/C)c2ccccc2)c2ccc(OCCN3CCCCCC3)cc2)cc1"
system_tested = "HOP-92 NSCLC"
label_value = "No"

[[record]]
molecule = "CCCC(=O)NC(c1ccc2c(c1)OC(F)(F)O2)c1cc(C)c2cccnc2c1O (centres undefined)"
system_tested = "HOP-92 NSCLC"
label_value = "No"

[[record]]
molecule = "C#Cc1nc(C2=C(C)C(OC(C)=O)/C(=N/OC(C)=O)C2)cs1 (centres undefined)"
system_tested = "HOP-92 NSCLC"
label_value = "Yes"

[[record]]
molecule = "CS(=O)(=O)c1ccc(-c2nc3ccccn3c2C=Nc2ccc(Cl)cc2)cc1"
system_tested = "HOP-92 NSCLC"
label_value = "No"

[[record]]
molecule = "O=C1Nc2cc(Cl)ccc2/C1=C\\c1ccc(OCc2ccc([N+](=O)[O-])cc2)cc1"
system_tested = "HOP-92 NSCLC"
label_value = "No"

[[record]]
molecule = "Cc1cc(C(NC(=O)CCCCCNc2cccc3c2C(=O)N(C2CCC(=O)NC2=O)C3=O)c2cccnc2)c(O)c2ncccc12 (centres undefined)"
system_tested = "HOP-92 NSCLC"
label_value = "Yes"

[[record]]
molecule = "COC(=O)C1CN(S(=O)(=O)/N=C2\\NC(=O)NC2=C(Cl)Cl)C1"
system_tested = "HOP-92 NSCLC"
label_value = "No"


====

test system: SK-MEL-28 melanoma; assay: NCI-60 one-dose screen, 48 h; details: 10 µM unless noted
This is part of a sample that, as a whole, favours compounds with a hit. Of some 83,000 tested, about 20% had one in any assay. The source made the active and inactive calls. Rule for the calls: active = growth percent below 10; inactive = the rest.
Labels: Y (active), N (inactive)

[[record]]
compound = "CO/N=C1\\CCc2c(sc(NC(=O)c3cccc(C(F)(F)F)c3)c2C(N)=O)C1"
label_value = "N"

[[record]]
compound = "COc1cccc(N2CCN(c3ncnc4c3[nH]c3ccc(F)cc34)C[C@@H]2C)c1"
label_value = "Y"

[[record]]
compound = "Fc1ccc(-c2nc(C(Cl)Cl)nc3cc(-c4ccccc4)nn23)cc1"
label_value = "Y"

[[record]]
compound = "CSCCC(C(=O)O)N1C(=O)/C(=C/c2ccc(O)c(O)c2)SC1=S (stereo not given)"
label_value = "N"

[[record]]
compound = "COc1cc(OC)c(C2C(Cl)C(=O)N2Nc2ncnc3ccccc23)cc1OC (stereo not given)"
label_value = "N"

[[record]]
compound = "COc1cc(-c2ccc3ncnc(NC(C)c4ccccc4)c3c2)cnc1OC (stereo not given)"
label_value = "N"

[[record]]
compound = "O=c1/c(=C\\c2ccc(-c3ccccc3)o2)sc2nc(-c3ccccc3)nn12"
label_value = "N"

[[record]]
compound = "CCN1CCN(S(=O)(=O)c2oc(-c3ccc(Cl)cc3)nc2C#N)CC1"
label_value = "N"

[[record]]
compound = "COC(=O)c1ccc(NC(=S)N2CCc3ccc([N+](=O)[O-])cc3C2)cc1O"
label_value = "N"

[[record]]
compound = "N/C(=N\\c1nc2c(Br)cccc2s1)C(Br)Br"
label_value = "Y"


====

system: MOLT-4 leukemia; assay: NCI-60 one-dose screen, 48 h; conditions: 10 µM unless noted
This is part of a sample that, as a whole, favours compounds with a hit. Of some 83,000 tested, about 20% had one in any assay. Active and inactive are the calls of the source. How the source made its calls: active means growth percent below 10; inactive means the rest.
Labels: T for active, F for inactive

[[record]]
compound = "CN(C)CCCNc1c2ccc(Cl)cc2nc2c1oc1ccccc12"
system_tested = "MOLT-4 leukemia"
label_value = "T"

[[record]]
compound = "COc1cc(/C=C/C(=O)c2ccc(C)cc2)ccc1Oc1nc(NCCO)nc(N2CCOCC2)n1"
system_tested = "MOLT-4 leukemia"
label_value = "T"

[[record]]
compound = "COc1cc(OC)c(S(=O)(=O)NNC(=O)c2ccncc2)cc1C(=O)/C=C/c1ccc(C)cc1"
system_tested = "MOLT-4 leukemia"
label_value = "F"

[[record]]
compound = "C/C(=N\\NC(N)=O)c1c(O)sc(=O)[nH]c1=O"
system_tested = "MOLT-4 leukemia"
label_value = "F"

[[record]]
compound = "Fc1ccc(-c2cc3nc(C(Cl)Cl)nc(-c4ccccc4)n3n2)cc1"
system_tested = "MOLT-4 leukemia"
label_value = "F"

[[record]]
compound = "CNC(=O)c1cc(-c2ccc(NC(=O)Nc3ccc(N4CCOCC4)c(C(F)(F)F)c3)cc2)nc2cccnc12"
system_tested = "MOLT-4 leukemia"
label_value = "F"

[[record]]
compound = "CCCC(=O)NC(c1ccc2c(c1)OC(F)(F)O2)c1cc(C)c2cccnc2c1O (centres undefined)"
system_tested = "MOLT-4 leukemia"
label_value = "F"

[[record]]
compound = "O=C(O)CCCCCN1C(=O)/C(=C/c2ccc(O)c(O)c2)SC1=S"
system_tested = "MOLT-4 leukemia"
label_value = "F"

[[record]]
compound = "Cn1ccnc1C(=O)/C=C/c1ccc(NC(=O)Nc2ccc(Cl)cc2)cc1"
system_tested = "MOLT-4 leukemia"
label_value = "F"

[[record]]
compound = "COc1ccc([C@@H]2c3[nH]c4ccccc4c3CC3C(=O)N(C4CCN(Cc5c(F)cccc5F)CC4)CC(=O)N32)c(OC)c1 (some centres undefined)"
system_tested = "MOLT-4 leukemia"
label_value = "F"

[[record]]
compound = "C/C(=N/NC(N)=S)c1ccc(Nc2nc(SCC(C)C)nc(-c3ccc(F)cc3)c2C#N)cc1"
system_tested = "MOLT-4 leukemia"
label_value = "F"

[[record]]
compound = "CC(O)C(NC(=O)C1CCCN1C(=O)CNC(=O)C1CC(=O)NCC(=O)NC(Cc2c[nH]c3ccccc23)C(=O)NC(Cc2ccc(O)cc2)C(=O)NCC(=O)NC(CO)C(=O)NC(CCC(N)=O)C(=O)NC(Cc2c[nH]c3ccccc23)C(=O)N1)C(=O)NCC(=O)NC(CCC(N)=O)C(=O)NC(CCCNC(=N)N)C(=O)NC(CC(=O)O)C(=O)O (centres undefined)"
system_tested = "MOLT-4 leukemia"
label_value = "F"

[[record]]
compound = "CC(C)NC(=O)c1cc(-c2ccc(NC(=O)Nc3ccc(N4CCOCC4)c(C(F)(F)F)c3)cc2)nc2cccnc12"
system_tested = "MOLT-4 leukemia"
label_value = "F"

[[record]]
compound = "Cc1ccc2ccc3ccc(C)nc3c2n1.Cc1ccc2ccc3ccc(C)nc3c2n1.Oc1c(Cl)cc(Cl)c2ccc(CN3CCCCC3)nc12.[Ru]"
system_tested = "MOLT-4 leukemia"
label_value = "T"

[[record]]
compound = "COc1ccc(NC2=C(Cl)C(=O)C(C)=C(C)C2=O)cc1OC"
system_tested = "MOLT-4 leukemia"
label_value = "F"

[[record]]
compound = "N#Cc1nc(-c2ccccc2)oc1S(=O)(=O)N1CCN(CCc2ccccn2)CC1"
system_tested = "MOLT-4 leukemia"
label_value = "T"

[[record]]
compound = "C#Cc1nc(C2=C(C)C(OC(=O)CCC(=O)O)CC2)cs1 (centres undefined)"
system_tested = "MOLT-4 leukemia"
label_value = "F"

[[record]]
compound = "O=[N+]([O-])c1ccc(O)c2ncccc12"
system_tested = "MOLT-4 leukemia"
label_value = "F"

[[record]]
compound = "Cc1ccc(-c2nc(C(Cl)Cl)nc3cc(-c4ccccc4)nn23)cc1"
system_tested = "MOLT-4 leukemia"
label_value = "F"

